Target: T1, human calcitonin receptor (human, UniProt P30988 25-474)
T1 construct: whole, on cells; Assay used cell membranes, not intact cells; also called hCTR; hCT
T1 sequence (looked up): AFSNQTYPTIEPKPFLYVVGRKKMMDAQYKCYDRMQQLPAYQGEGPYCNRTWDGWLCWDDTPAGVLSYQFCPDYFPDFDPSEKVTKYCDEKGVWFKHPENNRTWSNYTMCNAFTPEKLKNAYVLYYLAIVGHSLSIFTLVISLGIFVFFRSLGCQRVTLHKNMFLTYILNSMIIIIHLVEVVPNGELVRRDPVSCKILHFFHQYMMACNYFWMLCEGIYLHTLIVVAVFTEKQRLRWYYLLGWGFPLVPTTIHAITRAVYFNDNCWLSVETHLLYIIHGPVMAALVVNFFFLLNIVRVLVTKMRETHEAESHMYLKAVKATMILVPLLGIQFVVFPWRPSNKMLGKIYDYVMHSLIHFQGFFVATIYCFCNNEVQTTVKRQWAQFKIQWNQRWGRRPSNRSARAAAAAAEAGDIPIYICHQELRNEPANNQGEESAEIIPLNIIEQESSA
Assay: SPA competition with 125I-calcitonin on membranes of BHK cells with human calcitonin receptor (Assay VII)
Numbered stars: 1 amine (or outer) side, 2 acyl side, 3 side chain; on linkers, the order of the positions; unused ones are H or OH. Bridge positions count the residues as written; N and C are the ends. Side chains are listed from the residue outwards. Ends that are not written are not given here. * marks the point of attachment. C20 diacid = O=C(O)CCCCCCCCCCCCCCCCCCC(=O)*; γGlu = O=C(O)[C@H](CCC(=O)[*:2])N[*:1]
property: IC50 (nM)

                                     binder  numericreadout
0  K([γGlu-γGlu-C20 diacid])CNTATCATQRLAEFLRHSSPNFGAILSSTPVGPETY-NH2 (disulfide 2-7 (inferred))            1.56
1  K([γGlu-γGlu-C20 diacid])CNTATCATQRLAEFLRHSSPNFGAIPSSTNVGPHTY-NH2 (disulfide 2-7 (inferred))            10.3
2  {C20 diacid-γGlu}-GRCNTATCATQRLAAFLRHSSPNFGAIPSSTNVGPNTY-NH2 (disulfide 3-8)               3
3  K([γGlu-C20 diacid])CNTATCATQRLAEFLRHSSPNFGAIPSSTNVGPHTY-NH2 (disulfide 2-7)             3.8
